Experiment: reduction of polyQ htt aggregates in cells – imaging, exon1htt(103Q)mCFP cells, high-content imaging, primary screen (AID 483);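 further: compound exposure lasted 3 days before fixation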
Settings: exon1htt(103Q)mCFP cell line, aggregate imaging, at 2 µM; stronger effect = higher value
value type: inhibition of aggregation (%)

compound=NC(=O)CSc1cn(CCNC(=O)c2cccs2)c2ccccc12 reported_value=7
compound=CC1(C)CC(=O)C(C#N)=C(NCCCO)C1 reported_value=-2.8
compound="C=CCn1c(SCC(=O)c2cc(C)n(C(C)COC)c2C)nc2sc(C)c(C)c2c1=O (stereo unspecified)" reported_value=-8.9
compound=CCOC(=O)C1CCN(C(=O)COc2ccc(S(=O)(=O)NC(C)C)cc2Cl)CC1 reported_value=9
compound=O=C(Cn1nnc(-c2cc(Cl)ccc2-n2cnnn2)n1)N1CCCc2ccccc21 reported_value=-3.1
compound="CC(CCc1ccccc1)NCc1ccncc1 (stereo unspecified)" reported_value=-1.8

----------
Test: inhibitors of TNFa-induced NFkB p65 translocation, primary screen, imaging, HUVEC, MLSMR starter and 10KST1 sets (AID 438);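 further: compound added about 3h40 before a 20 min TNFalpha stimulation; signal is the nuclear over cytoplasmic p65 intensity ratio per well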
Conditions: HUVEC TNFa-induced p65 nuclear translocation; at 2 µM, stronger effect = higher value, 0% TNFa-plus-vehicle, 100% no-TNFa wells
inhibition values, listed per item
value type: inhibition (%)

molecule=O=c1oc2ccccc2cc1NCc1ccccc1O value_type=inhibition unit_string=% reported_value=2.1
molecule=Cc1ccc(Cl)cc1N1CCN(C(=O)CN2C(=O)c3cccc4cccc2c34)CC1 value_type=inhibition unit_string=% reported_value=-7.2
molecule="CN1C(=O)CCC1(O)c1ccccc1 (stereo unspecified)" value_type=inhibition unit_string=% reported_value=-9.2
molecule=Cc1nc(NCc2ccc3c(c2)OCO3)c2oc3ccccc3c2n1 value_type=inhibition unit_string=% reported_value=12.8
molecule=O=c1c(-c2ccccc2)coc2c(CN3CCOCC3)c(O)ccc12 value_type=inhibition unit_string=% reported_value=-2.5
molecule="CC(C)COc1ccc(C2NC(=O)NC2=O)cc1 (stereo unspecified)" value_type=inhibition unit_string=% reported_value=-10.2
molecule=CCn1c(=O)c(C(=O)Nc2cccnc2)c(O)c2ccccc21 value_type=inhibition unit_string=% reported_value=4.1
molecule=COc1ccc(N=c2scc(-c3ccc(S(=O)(=O)N4CCOCC4)cc3)n2CCCO)cc1 value_type=inhibition unit_string=% reported_value=-6.1
molecule=Cc1nnc(SCC(=O)N2CCC(C(=O)Nc3nccs3)CC2)n1Cc1ccccc1 value_type=inhibition unit_string=% reported_value=6.1
molecule=Cc1csc2ncc(C(=O)Nc3ccccc3Cl)c(=O)n12 value_type=inhibition unit_string=% reported_value=5.8
molecule=CC(=O)NCC(=O)N(Cc1ccco1)C1(C(=O)NC2CCCCC2)CCCCC1 value_type=inhibition unit_string=% reported_value=5.7

----------
Target: Voltage-gated potassium channel subunit beta-2 (Rattus norvegicus)
Experiment: inhibitors of rat Kvbeta2 reductase activity – biochemical, NADPH fluorescence, primary screen (AID 622);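 further: slope of raw intensity against log time taken from 70 to 1610 s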
Settings: recombinant KvBeta, 4-cyanobenzaldehyde reduction, at 10 µM, stronger effect = higher value
fluorescence slope values, listed per item
value type: fluorescence slope

compound=COc1cc(C(=O)Nc2nc(-c3cccs3)cs2)cc(OC)c1OC target_of_assay="Voltage-gated potassium channel subunit beta-2 (Rattus norvegicus)" reported_value=-0.507
compound=N#Cc1c2n(c(=O)[nH]c1=O)CCCCC2 target_of_assay="Voltage-gated potassium channel subunit beta-2 (Rattus norvegicus)" reported_value=-0.5
compound=O=C(c1ccccc1F)N1CCN(Cc2cccc(Cl)c2)CC1 target_of_assay="Voltage-gated potassium channel subunit beta-2 (Rattus norvegicus)" reported_value=-0.654
compound="CC(=O)c1ccc(NC2OC(C)C(O)C(O)C2O)cc1 (configuration not stated)" target_of_assay="Voltage-gated potassium channel subunit beta-2 (Rattus norvegicus)" reported_value=-0.382
compound=Cn1c(-c2cc(Br)ccc2O)n[nH]c1=S target_of_assay="Voltage-gated potassium channel subunit beta-2 (Rattus norvegicus)" reported_value=-0.51
compound="CCOC(=O)COc1ccc(C2NC(C(=O)O)CS2)cc1 (configuration not stated)" target_of_assay="Voltage-gated potassium channel subunit beta-2 (Rattus norvegicus)" reported_value=-0.381
compound="COc1cccc2cc(C(=O)C3=C(O)C(=O)N(CCCN4CCOCC4)C3c3ccncc3)oc12 (configuration not stated)" target_of_assay="Voltage-gated potassium channel subunit beta-2 (Rattus norvegicus)" reported_value=-0.478
compound=O=C(COC(=O)c1cnccn1)c1ccc(OC(=O)c2ccccc2)cc1 target_of_assay="Voltage-gated potassium channel subunit beta-2 (Rattus norvegicus)" reported_value=-0.359
compound="Nc1nc(Nc2cccc3ccccc23)nc(C2CCCC2=O)n1 (configuration not stated)" target_of_assay="Voltage-gated potassium channel subunit beta-2 (Rattus norvegicus)" reported_value=-0.312
compound=COc1cccc(C(=O)OCn2nnc3ccccc3c2=O)c1 target_of_assay="Voltage-gated potassium channel subunit beta-2 (Rattus norvegicus)" reported_value=-0.616
compound=CCOC(=O)CSc1nnc(-c2ccc(NS(=O)(=O)c3ccc(C)cc3)cc2)o1 target_of_assay="Voltage-gated potassium channel subunit beta-2 (Rattus norvegicus)" reported_value=-0.433
compound="CCC(C)NC(=O)c1ccccc1NC(=O)C(C)N(c1ccccc1)S(C)(=O)=O (configuration not stated)" target_of_assay="Voltage-gated potassium channel subunit beta-2 (Rattus norvegicus)" reported_value=-0.479
compound=CCN(CC)C(=O)CSc1nnc([C@@H](N)Cc2ccccc2)o1 target_of_assay="Voltage-gated potassium channel subunit beta-2 (Rattus norvegicus)" reported_value=-0.499
compound=COc1cc2c(cc1NC(=O)CN1CCN(S(=O)(=O)c3ccc(F)cc3)CC1)oc1ccccc12 target_of_assay="Voltage-gated potassium channel subunit beta-2 (Rattus norvegicus)" reported_value=-0.364
compound=Cc1cc2oc(=O)cc(C)c2c(=O)o1 target_of_assay="Voltage-gated potassium channel subunit beta-2 (Rattus norvegicus)" reported_value=-0.391
compound=COC(=O)c1cc2oc(C)cc2n1CC(=O)N(C)c1ccccc1 target_of_assay="Voltage-gated potassium channel subunit beta-2 (Rattus norvegicus)" reported_value=-0.347
compound=CCCN(Cc1cc2cc(C)ccc2[nH]c1=O)C(=O)c1cccc(OC)c1 target_of_assay="Voltage-gated potassium channel subunit beta-2 (Rattus norvegicus)" reported_value=-0.506
compound="O=C(CCn1c(=S)[nH]c2ccccc2c1=O)NCC1CCCO1 (configuration not stated)" target_of_assay="Voltage-gated potassium channel subunit beta-2 (Rattus norvegicus)" reported_value=-0.622
compound=C=CCN1C(=O)CS/C1=C(\C#N)S(=O)(=O)c1ccc(C)cc1 target_of_assay="Voltage-gated potassium channel subunit beta-2 (Rattus norvegicus)" reported_value=-0.481
compound=CC(=O)c1cc(-c2ccc(F)cc2)n(CCC(=O)Nc2cc(C)[nH]n2)c1C target_of_assay="Voltage-gated potassium channel subunit beta-2 (Rattus norvegicus)" reported_value=-0.507
compound=COc1ccc(S(=O)(=O)N(CC(=O)N2CCN(c3ccccc3OC)CC2)c2ccccc2)cc1 target_of_assay="Voltage-gated potassium channel subunit beta-2 (Rattus norvegicus)" reported_value=-0.474
compound=CCN(CC)Cc1c(C(=O)OC)nnn1-c1nonc1N target_of_assay="Voltage-gated potassium channel subunit beta-2 (Rattus norvegicus)" reported_value=-0.504
compound=CCCC1(CCC)NC(=O)NC1=O target_of_assay="Voltage-gated potassium channel subunit beta-2 (Rattus norvegicus)" reported_value=-0.491
compound=CC(C)NC(=O)CSCc1ccccc1Cl target_of_assay="Voltage-gated potassium channel subunit beta-2 (Rattus norvegicus)" reported_value=-0.5
compound="Cc1cccc(C2c3c(n(C)c(=O)n(C)c3=O)N=C3c4ccccc4C(=O)C32)c1 (configuration not stated)" target_of_assay="Voltage-gated potassium channel subunit beta-2 (Rattus norvegicus)" reported_value=-0.383
compound=CCOC(=O)c1ccc(NS(=O)(=O)c2ccc3c(c2)oc(=O)n3C)cc1 target_of_assay="Voltage-gated potassium channel subunit beta-2 (Rattus norvegicus)" reported_value=-0.602
compound=COC(=O)c1cccc(NC(=O)Cc2coc3cc(OC)ccc23)c1 target_of_assay="Voltage-gated potassium channel subunit beta-2 (Rattus norvegicus)" reported_value=-0.595
compound=COc1cccc(OCC(=O)Nc2ccccc2C(N)=O)c1 target_of_assay="Voltage-gated potassium channel subunit beta-2 (Rattus norvegicus)" reported_value=-0.517
compound="O=C(CN1C(=O)C2C3C=CC(C3)C2C1=O)NCc1ccc2c(c1)OCO2 (configuration not stated)" target_of_assay="Voltage-gated potassium channel subunit beta-2 (Rattus norvegicus)" reported_value=-0.601
compound=N#Cc1nc(-c2ccco2)oc1NCc1ccco1 target_of_assay="Voltage-gated potassium channel subunit beta-2 (Rattus norvegicus)" reported_value=-0.375
compound="CCC(CO)Nc1ncnc2c1cnn2-c1ccc(Cl)cc1 (configuration not stated)" target_of_assay="Voltage-gated potassium channel subunit beta-2 (Rattus norvegicus)" reported_value=-0.54
compound="O=C(Nc1nc(-c2ccncc2)cs1)C1COc2ccccc2O1 (configuration not stated)" target_of_assay="Voltage-gated potassium channel subunit beta-2 (Rattus norvegicus)" reported_value=-0.608
compound=COc1ccc(-n2nnnc2SCC(=O)c2ccc(O)c(O)c2)cc1 target_of_assay="Voltage-gated potassium channel subunit beta-2 (Rattus norvegicus)" reported_value=-0.487
compound="CCCCCCOC(=O)C(C#N)c1nc2ccccc2nc1N1CCCCC1 (configuration not stated)" target_of_assay="Voltage-gated potassium channel subunit beta-2 (Rattus norvegicus)" reported_value=-0.393
compound=CCOC(=O)c1ccccc1NC(=O)CSc1nnc(COc2ccccc2C)n1C target_of_assay="Voltage-gated potassium channel subunit beta-2 (Rattus norvegicus)" reported_value=-0.346
compound=Cc1cccc(NC(=O)c2ccccc2O)c1C target_of_assay="Voltage-gated potassium channel subunit beta-2 (Rattus norvegicus)" reported_value=-0.482
compound=O=C(C(c1ccccc1)c1ccccc1)N1CCN(Cc2ccccn2)CC1 target_of_assay="Voltage-gated potassium channel subunit beta-2 (Rattus norvegicus)" reported_value=-0.369
compound=CCOC(=O)c1ccccc1NC(=O)c1ccc(NS(C)(=O)=O)cc1 target_of_assay="Voltage-gated potassium channel subunit beta-2 (Rattus norvegicus)" reported_value=-0.473
compound=COc1cccc(NC(=O)N2CCN(c3cccc(C)c3C)CC2)c1 target_of_assay="Voltage-gated potassium channel subunit beta-2 (Rattus norvegicus)" reported_value=-0.455
compound=Cc1ccc(C)c(S(=O)(=O)NCc2cccnc2)c1 target_of_assay="Voltage-gated potassium channel subunit beta-2 (Rattus norvegicus)" reported_value=-0.467
compound=CS(=O)(=O)N1CCc2cc(S(=O)(=O)Nc3ccc4oc5c(c4c3)CCCC5)ccc21 target_of_assay="Voltage-gated potassium channel subunit beta-2 (Rattus norvegicus)" reported_value=-0.531
compound="CCc1[nH]nc2c1C(c1ccncc1)C(C#N)=C(N)O2 (configuration not stated)" target_of_assay="Voltage-gated potassium channel subunit beta-2 (Rattus norvegicus)" reported_value=-0.507
compound=CCOc1cc(C(=O)N2CCN=C2SC)cc(OCC)c1OCC target_of_assay="Voltage-gated potassium channel subunit beta-2 (Rattus norvegicus)" reported_value=-0.595
compound=O=C1CCCC2=C1C1(CCCC1)N=C(Nc1nc3ccccc3s1)N2 target_of_assay="Voltage-gated potassium channel subunit beta-2 (Rattus norvegicus)" reported_value=-0.257
compound=O=S(=O)(c1ccc(F)c(Cl)c1)N1CCCC1 target_of_assay="Voltage-gated potassium channel subunit beta-2 (Rattus norvegicus)" reported_value=-0.486
compound="CC(C)C1N=C2c3ccccc3N=C(SCc3cc(=O)n4ccccc4n3)N2C1=O (configuration not stated)" target_of_assay="Voltage-gated potassium channel subunit beta-2 (Rattus norvegicus)" reported_value=-0.451
compound=CC(C)(C)n1nnnc1CN1CCC(NC(=O)NC2CCCCC2)CC1 target_of_assay="Voltage-gated potassium channel subunit beta-2 (Rattus norvegicus)" reported_value=-0.324
